Provide the recorded pKd for the entries that follow.
Target: human RORγt ligand binding domain (RORγt LBD) (Homo sapiens, UniProt P51449)
Construct: His-tag (N); TurboTEV protease cleavage site (ENLYFQG) (N); made in house; host or cells: E. coli (pHIS1, a modified pET expression vector)
Sequence (P51449 with tags, fused parts or gaps): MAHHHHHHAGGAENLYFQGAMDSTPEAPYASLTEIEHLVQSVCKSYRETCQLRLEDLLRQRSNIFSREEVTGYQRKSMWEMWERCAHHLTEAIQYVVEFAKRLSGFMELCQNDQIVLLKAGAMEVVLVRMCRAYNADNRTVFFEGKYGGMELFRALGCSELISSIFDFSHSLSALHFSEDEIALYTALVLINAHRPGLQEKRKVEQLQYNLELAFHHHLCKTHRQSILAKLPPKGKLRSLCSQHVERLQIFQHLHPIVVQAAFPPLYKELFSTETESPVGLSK
Assay: RORγt ThermoFluor assay
Details: estimated from thermal shift concentration response
Experimental: This approach is applicable to a wide variety of systems, and rigorous in theoretical interpretation through quantitation of equilibrium binding constants (KD). […] Fluorescence was measured by continuous illumination with UV light (Hamamatsu LC6) supplied via fiber optic and filtered through a band-pass filter (380-400 nm; >6 OD cutoff). […] Images were collected at each temperature, and the sum of the pixel intensity in a given area of the assay plate was recorded versus temperature. […]
Give only the number. pKd is defined as minus log10 of concentration in molar units.

Briefly, pKd measured for CC(C)(O)Cc1nnc(-c2nc(C(=O)N3CC[C@H](F)C3)c(-c3ccc(C(O)(C(F)(F)F)C(F)(F)F)c(Cl)c3Cl)s2)o1 : 7.12

Briefly, pKd measured for CC[C@H](NS(=O)(=O)c1ccc(-c2sc(-c3nnc(C(C)(C)O)o3)nc2C(=O)N2CCC(F)CC2)c(Cl)c1)C(F)(F)F : 8.03

Briefly, pKd measured for C[C@H](NS(=O)(=O)c1ccc(-c2sc(-c3nnc(C(C)(C)O)o3)nc2C(=O)N2CCCC[C@@H]2C)c(C(F)F)c1F)C(F)(F)F : 9.00

Briefly, pKd measured for C[C@H](NS(=O)(=O)c1ccc(-c2sc(-c3nnc(C(C)(C)O)o3)nc2C(=O)N2CCC(F)(F)C2)c(Cl)c1Cl)C(F)(F)F : 8.12

Briefly, pKd measured for COC1(c2nnc(-c3nc(C(=O)N4CCC(F)(F)CC4)c(-c4ccc(S(=O)(=O)N[C@@H](C)C(F)(F)F)c(Cl)c4Cl)s3)o2)CC1 : 9.38

Briefly, pKd measured for CCN(CC)C(=O)c1nc(-c2cccc(C(C)(C)O)n2)sc1-c1ccc(S(=O)(=O)N[C@@H](C)C(F)(F)F)c(Cl)c1Cl : 8.15

Briefly, pKd measured for C[C@H](NS(=O)(=O)c1ccc(-c2sc(-c3nnc(C(C)(C)O)o3)nc2C(=O)N2CCOC[C@@H]2C)c(Cl)c1Cl)C(F)(F)F : 8.19

Briefly, pKd measured for C[C@H](NS(=O)(=O)c1ccc(-c2sc(-c3noc(C(C)(C)O)n3)nc2C(=O)N2CCC(F)CC2)c(C(F)F)c1F)C(F)(F)F : 7.51

Briefly, pKd measured for C[C@H](NS(=O)(=O)c1ccc(-c2sc(-c3nnc(CC(C)(C)O)o3)nc2C(=O)N2CCC(F)(F)CC2)c(OC(F)F)c1F)C(F)(F)F : 7.09

Briefly, pKd measured for C[C@H](NS(=O)(=O)c1ccc(-c2sc(-c3nnco3)nc2C(=O)N2CCC(F)(F)CC2)c(Cl)c1Cl)C(F)(F)F : 7.92

Briefly, pKd measured for C[C@H](NS(=O)(=O)c1ccc(-c2sc(-c3nnc(C(C)(C)O)o3)nc2C(=O)N2CCC(F)(F)CC2)c(C(F)F)c1Cl)C(F)(F)F : 8.48

Briefly, pKd measured for C[C@H]1CCCN1C(=O)c1nc(-c2nnc(C(C)(C)O)n2C)sc1-c1ccc(C(O)(C(F)(F)F)C(F)(F)F)cc1C(F)(F)F : 8.30

Briefly, pKd measured for C[C@H](NS(=O)(=O)c1ccc(-c2sc(-c3cc(CC(C)(C)C(=O)O)on3)nc2C(=O)N2CC(F)(F)C[C@@H]2C)c(C(F)F)c1F)C(F)(F)F : 8.25

Briefly, pKd measured for CCN(CC)C(=O)c1nc(-c2nnc(CC(C)(C)O)o2)sc1-c1ccc(S(=O)(=O)N[C@@H](C)C(F)(F)F)c(Cl)c1Cl : 8.00

Briefly, pKd measured for CC(C)(O)c1nnc(-c2nc(C(=O)N3CCC(F)(F)CC3)c(-c3ccc(C(O)(C(F)(F)F)C(F)(F)F)cc3C(F)F)s2)o1 : 8.26

Briefly, pKd measured for CC(C)(O)c1nnc(-c2nc(C(=O)N3CCC(F)(F)CC3)c(-c3ccc(C(O)C4(C(F)(F)F)CC4)c(Cl)c3Cl)s2)o1 (centres unmarked) : 7.92

Briefly, pKd measured for CCN(CC)C(=O)c1nc(-c2nnc(C(C)(C)O)[nH]2)sc1-c1ccc(C(O)(C(F)(F)F)C(F)(F)F)c(Cl)c1Cl : 7.49

---

biological target: full-length human RORγt (Homo sapiens, UniProt P51449); construct: expressed in transfected cells; host or cells: HEK293T, transiently transfected with pCMV-BD-ROR; assay: RORγt (full-length human) Reporter Assay, Conditions A; type: cell-based; conditions: HEK293T cells, GAL4-DBD-RORγt, luciferase; read-out: RORγt (FL) Reporter Assay A, IC50
Sequence (P51449 1-497 isoform P51449-2): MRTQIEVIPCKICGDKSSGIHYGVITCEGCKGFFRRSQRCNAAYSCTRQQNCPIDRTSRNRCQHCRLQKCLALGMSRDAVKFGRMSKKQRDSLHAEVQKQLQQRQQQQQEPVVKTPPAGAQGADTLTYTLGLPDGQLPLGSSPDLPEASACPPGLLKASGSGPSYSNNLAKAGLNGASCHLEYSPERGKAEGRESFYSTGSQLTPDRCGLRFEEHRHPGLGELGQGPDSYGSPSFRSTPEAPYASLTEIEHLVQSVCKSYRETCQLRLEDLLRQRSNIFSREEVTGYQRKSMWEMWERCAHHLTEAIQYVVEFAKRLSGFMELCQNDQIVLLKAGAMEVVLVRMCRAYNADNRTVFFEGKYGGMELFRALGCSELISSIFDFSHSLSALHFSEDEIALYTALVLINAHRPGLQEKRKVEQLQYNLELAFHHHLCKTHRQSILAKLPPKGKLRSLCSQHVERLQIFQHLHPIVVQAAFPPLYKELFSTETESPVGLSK
Provide the recorded pIC50 for the entries that follow.
Give only the number. pIC50 is defined as minus log10 of concentration in molar units.

Briefly, pIC50 measured for CC[C@H](NS(=O)(=O)c1ccc(-c2sc(-c3noc(CC(C)(C)C(=O)O)n3)nc2C(=O)N2CCC(F)(F)CC2)c(C(F)F)c1Cl)C(F)(F)F : 7.18

Briefly, pIC50 measured for CC[C@H](NS(=O)(=O)c1ccc(-c2sc(-c3nnc(C(C)(C)O)o3)nc2C(=O)N2CCC(F)CC2)c(Cl)c1)C(F)(F)F : 7.16

Briefly, pIC50 measured for CC[C@H](NS(=O)(=O)c1ccc(-c2sc(-c3noc(CC(C)(C)C(=O)O)n3)nc2C(=O)N2CCCC[C@@H]2C)c(C(F)F)c1Cl)C(F)(F)F : 7.48

---

Target: full-length human RORγt (Homo sapiens)
Construct: expressed in transfected cells; host or cells: HEK293T, transiently transfected with pCMV-BD-ROR
Experiment: RORγt (full-length human) Reporter Assay, Conditions A
Format: cell-based
Settings: HEK293T cells, GAL4-DBD-RORγt, luciferase; read-out: RORγt (FL) Reporter Assay A, IC50
Protocol: After overnight (16 to 20 hours) incubation, media were removed and cells were lysed with 20 μL 1× Passive Lysis Buffer (Promega) for 10-15 minutes. Luminescence was measured using a BMG LUMIstar OPTIMA plate reader, after addition of 75 μL/well firefly luciferase buffer, followed by 75 μL/well Renilla luciferase buffer. […] IC50s were generated by plotting final Renilla normalized data against compound concentration and percent inhibition was calculated against DMSO control.
MEASURE: IC50 (nM)
Write it as a number; the unit nM goes unstated.

Briefly, IC50 measured for CCN(CC)C(=O)c1nc(-c2nnc(C(N)=O)o2)sc1-c1ccc(S(=O)(=O)N[C@@H](C)C(F)(F)F)c(Cl)c1Cl : 280

Briefly, IC50 measured for C[C@H](NS(=O)(=O)c1ccc(-c2sc(-c3nnc(C(C)(C)O)o3)nc2C(=O)N2CCCC[C@@H]2C)c(Cl)c1Cl)C(F)(F)F : 26

Briefly, IC50 measured for C[C@H](NS(=O)(=O)c1ccc(-c2sc(-c3nnc(C(C)(C)O)o3)nc2C(=O)N2CC(F)(F)C[C@@H]2C)c(Cl)c1Cl)C(F)(F)F : 23

Briefly, IC50 measured for C[C@H](NS(=O)(=O)c1ccc(-c2sc(-c3nnc(CC(C)(C)O)o3)nc2C(=O)N2CC(F)(F)C[C@@H]2C)c(Cl)c1Cl)C(F)(F)F : 23

---

biological target: full-length human RORγt (Homo sapiens); construct: expressed in transfected cells; host or cells: HEK293T, transiently transfected with pCMV-BD-ROR; assay: RORγt (full-length human) Reporter Assay, Conditions A; assay type: cell-based; details: read-out: RORγt (FL) Reporter Assay A, % inhibition @ 6 μM; 6 μM compound
MEASURE: inhibition at 6 µM (%)
Write it as a number; the unit % goes unstated.

Briefly, inhibition at 6 µM measured for CCN(CC)C(=O)c1nc(-c2nnc(C(N)=O)o2)sc1-c1ccc(S(=O)(=O)N[C@@H](C)C(F)(F)F)c(Cl)c1Cl : 105

Briefly, inhibition at 6 µM measured for CC[C@H](NS(=O)(=O)c1ccc(-c2sc(-c3nnc(CC(C)(C)C#N)o3)nc2C(=O)N2CCC(F)CC2)c(Cl)c1Cl)C(F)(F)F : 106

Briefly, inhibition at 6 µM measured for Cc1c(S(=O)(=O)N[C@@H](C)C(F)(F)F)ccc(-c2sc(-c3nnc(C(C)(C)O)o3)nc2C(=O)N2CCC(F)(F)CC2)c1Cl : 107

Briefly, inhibition at 6 µM measured for C[C@H](NS(=O)(=O)c1ccc(-c2sc(-c3nnc(C(C)(C)O)o3)nc2C(=O)N2CCC(F)(F)CC2)c(C(F)F)c1Cl)C(F)(F)F : 105

Briefly, inhibition at 6 µM measured for CC[C@H](NS(=O)(=O)c1ccc(-c2sc(-c3noc(CC(C)(C)O)n3)nc2C(=O)N2CCC(F)CC2)c(C(F)F)c1F)C(F)(F)F : 103

Briefly, inhibition at 6 µM measured for C[C@H](NS(=O)(=O)c1ccc(-c2sc(-c3nnc(C(C)(C)O)o3)nc2C(=O)N2CCC(F)(F)CC2)c(Cl)c1F)C(F)(F)F : 108

Briefly, inhibition at 6 µM measured for CC(C)(O)Cc1nnc(-c2nc(C(=O)N3CC[C@H](F)C3)c(-c3ccc(C(O)(C(F)(F)F)C(F)(F)F)c(Cl)c3Cl)s2)o1 : 104

Briefly, inhibition at 6 µM measured for CC[C@H](NS(=O)(=O)c1ccc(-c2sc(-c3nnc(C(C)(C)O)o3)nc2C(=O)N2CCC(F)(F)CC2)c(F)c1C(F)F)C(F)(F)F : 104

Briefly, inhibition at 6 µM measured for C[C@H](NS(=O)(=O)c1ccc(-c2sc(-c3nnc(CC(C)(C)O)o3)nc2C(=O)N2CCC(F)(F)CC2)c(Cl)c1Cl)C(F)(F)F : 107

Briefly, inhibition at 6 µM measured for C[C@H](NS(=O)(=O)c1ccc(-c2sc(-c3nnc(C(C)(C)O)o3)nc2C(=O)N2CCC(F)(F)CC2)c(F)c1C(F)(F)F)C(F)(F)F : 98

Briefly, inhibition at 6 µM measured for CCN(CC(F)(F)F)C(=O)c1nc(-c2nnc(C(C)(C)O)o2)sc1-c1ccc(S(=O)(=O)N[C@@H](C)C(F)(F)F)c(Cl)c1Cl : 101

Briefly, inhibition at 6 µM measured for CCN(CC)C(=O)c1nc(-c2nnc(C)o2)sc1-c1ccc(S(=O)(=O)N[C@@H](C)C(F)(F)F)c(Cl)c1Cl : 102

Briefly, inhibition at 6 µM measured for CC(C)(O)c1nnc(-c2nc(C(=O)N3CC(F)(F)CC3(C)C)c(-c3ccc(S(=O)(=O)NC4(C(F)F)CC4)c(F)c3Cl)s2)o1 : 74

Briefly, inhibition at 6 µM measured for CCN(C(=O)c1nc(-c2nnc(C(C)(C)O)o2)sc1-c1ccc(S(=O)(=O)N[C@@H](C)C(F)(F)F)c(Cl)c1Cl)C(C)C : 113

Briefly, inhibition at 6 µM measured for CC(C)(Cc1nnc(-c2nc(C(=O)N3CCC(F)CC3)c(-c3cc(C(C)(C)C)cc(C(O)(C(F)(F)F)C(F)(F)F)c3)s2)o1)C(=O)O : 104

Briefly, inhibition at 6 µM measured for CC[C@H](NS(=O)(=O)c1ccc(-c2sc(-c3nnn[nH]3)nc2C(=O)N2CCCC[C@@H]2C)c(Cl)c1Cl)C(F)(F)F : 59

Briefly, inhibition at 6 µM measured for C[C@H](NS(=O)(=O)c1ccc(-c2sc(-c3nnc(C(C)(C)O)o3)nc2C(=O)N2CCOC[C@@H]2C)c(Cl)c1Cl)C(F)(F)F : 108

Briefly, inhibition at 6 µM measured for C[C@H](NS(=O)(=O)c1ccc(-c2sc(-c3nnc(C(C)(C)O)o3)nc2C(=O)N2CC(F)(F)C[C@@H]2C)c(Cl)c1Cl)C(F)(F)F : 103

Briefly, inhibition at 6 µM measured for C[C@H](NS(=O)(=O)c1ccc(-c2sc(-c3nnc(C(C)(C)O)o3)nc2C(=O)N2CCC(F)(F)CC2)c2c1CCCO2)C(F)(F)F : 97

Briefly, inhibition at 6 µM measured for CC[C@H](NS(=O)(=O)c1ccc(-c2sc(-c3noc(CC(C)(C)C(=O)O)n3)nc2C(=O)N2CCCC[C@@H]2C)c(Cl)c1Cl)C(F)(F)F : 104

Briefly, inhibition at 6 µM measured for C[C@H](NS(=O)(=O)c1ccc(-c2sc(-c3nnc(C(C)(C)O)o3)nc2C(=O)N2CCC(F)(F)C2)c(Cl)c1Cl)C(F)(F)F : 108

Briefly, inhibition at 6 µM measured for C[C@H](NS(=O)(=O)c1ccc(-c2sc(-c3nnc(C(C)(C)O)o3)nc2C(=O)N2CCCC[C@@H]2C)c(Cl)c1Cl)C(F)(F)F : 105
